DC50: recorded values
# target: SMARCA2 (Homo sapiens)
# Sequence (P51531 whole entry): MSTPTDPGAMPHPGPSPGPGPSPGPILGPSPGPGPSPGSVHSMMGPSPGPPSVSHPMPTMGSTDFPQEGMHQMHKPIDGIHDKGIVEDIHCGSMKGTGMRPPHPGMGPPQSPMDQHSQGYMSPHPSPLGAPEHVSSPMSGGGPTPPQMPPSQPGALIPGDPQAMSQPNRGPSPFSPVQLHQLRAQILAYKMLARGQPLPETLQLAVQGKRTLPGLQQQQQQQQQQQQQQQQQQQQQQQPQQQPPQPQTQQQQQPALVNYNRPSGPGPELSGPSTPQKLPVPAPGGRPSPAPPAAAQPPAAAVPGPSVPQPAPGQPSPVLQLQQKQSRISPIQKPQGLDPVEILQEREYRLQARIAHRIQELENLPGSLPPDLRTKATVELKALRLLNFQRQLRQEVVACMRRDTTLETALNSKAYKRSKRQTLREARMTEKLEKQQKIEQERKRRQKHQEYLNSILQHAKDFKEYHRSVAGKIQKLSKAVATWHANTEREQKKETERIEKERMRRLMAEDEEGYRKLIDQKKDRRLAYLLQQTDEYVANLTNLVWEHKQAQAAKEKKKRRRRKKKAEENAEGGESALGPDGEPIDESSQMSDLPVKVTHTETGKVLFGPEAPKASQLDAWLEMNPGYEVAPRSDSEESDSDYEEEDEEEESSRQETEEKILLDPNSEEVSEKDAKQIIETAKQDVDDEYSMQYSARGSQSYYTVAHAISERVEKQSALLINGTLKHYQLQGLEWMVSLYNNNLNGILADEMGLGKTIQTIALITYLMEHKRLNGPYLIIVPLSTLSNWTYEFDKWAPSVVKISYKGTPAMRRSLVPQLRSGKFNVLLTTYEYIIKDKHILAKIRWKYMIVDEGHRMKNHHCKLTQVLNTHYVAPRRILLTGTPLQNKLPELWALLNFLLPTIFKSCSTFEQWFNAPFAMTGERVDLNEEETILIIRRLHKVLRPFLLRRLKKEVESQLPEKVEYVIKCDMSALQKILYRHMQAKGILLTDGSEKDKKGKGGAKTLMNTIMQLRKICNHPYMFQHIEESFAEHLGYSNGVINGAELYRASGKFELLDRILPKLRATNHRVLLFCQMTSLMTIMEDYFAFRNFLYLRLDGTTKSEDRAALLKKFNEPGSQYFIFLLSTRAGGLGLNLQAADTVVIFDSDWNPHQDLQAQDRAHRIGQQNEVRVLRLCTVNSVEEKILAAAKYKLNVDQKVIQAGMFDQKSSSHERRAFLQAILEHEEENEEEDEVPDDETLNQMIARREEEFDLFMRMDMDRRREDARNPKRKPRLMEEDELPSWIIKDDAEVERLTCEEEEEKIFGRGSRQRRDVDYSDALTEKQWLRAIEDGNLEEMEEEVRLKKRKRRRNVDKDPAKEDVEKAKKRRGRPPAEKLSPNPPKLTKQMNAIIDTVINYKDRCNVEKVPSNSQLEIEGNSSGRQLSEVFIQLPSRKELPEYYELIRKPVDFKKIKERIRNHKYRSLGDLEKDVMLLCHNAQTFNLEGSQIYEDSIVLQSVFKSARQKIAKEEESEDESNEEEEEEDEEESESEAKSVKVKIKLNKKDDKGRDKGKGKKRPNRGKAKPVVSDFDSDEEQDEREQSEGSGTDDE
# experimental.protocol: SMARCA2 Western blot MV4-11 degradation
# Format: cell-based
# assay.conditions: MV4-11 cells, 24 h, read-out: SMARCA2 WB MV411 degradation 24 h: Average external-Abs DC50
# Procedure: Cells were seeded into 6-well plates (MV4-11: 4×10^6 cells/well/1 ml) and 1 ml of 2× compound solution was added into the well to make the final concentration and the plates were mixed well and incubated for 24 hours (No cytotoxicity was observed). The cell were collected with media and spun at 3000 rpm for 5 minutes. […] The membrane was washed three times with TBST, 5 minutes each and lastly the LiCOR was read. […]

>  <compound>
Cc1ncsc1-c1ccc(CNC(=O)[C@@H]2C[C@@H](O)CN2C(=O)[C@@H](NC(=O)C2CCC(c3cnc(N4C5CCC4CN(c4cc(-c6ccccc6O)nnc4N)C5)nc3)CC2)C(C)(C)C)cc1 (stereo partly drawn)

>  <DC50>
< 100 nM

$$$$
>  <compound>
Cc1ncsc1-c1ccc(CNC(=O)[C@@H]2C[C@@H](O)CN2C(=O)[C@@H](NC(=O)C23CCC(CN4CCC(c5cnc(N6C7CCC6CN(c6cc(-c8ccccc8O)nnc6N)C7)nc5)CC4)(CC2)CC3)C(C)(C)C)cc1

>  <DC50>
< 100 nM

$$$$
>  <compound>
Cc1ncsc1-c1ccc(CNC(=O)[C@@H]2C[C@@H](O)CN2C(=O)[C@@H](NC(=O)[C@H]2CC[C@H](c3cnc(N4C5CCC4CN(c4cc(-c6ccccc6O)nnc4N)C5)nc3)CC2)C(C)(C)C)c(C(F)(F)F)c1

>  <DC50>
< 100 nM

$$$$
